- Tested on: Candida albicans multidrug efflux pump MDR1 (expressed in S. cerevisiae AD1-8u)
- assay_protocol: CaMdr1 pump blockers in yeast – flow cytometry, singleplex, Cherry Pick1 set, confirmation (AID 588518);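 further: 0% = DMSO vehicle and 100% = reference inhibitor; higher means more Nile Red retained so more efflux inhibition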
- condition_label: S. cerevisiae AD/CaMDR1, Nile Red efflux, at 10 µM, hits give high values
The whole screen tested about 1,700 compounds, of which about 20 (1%) were called active. The full list was thinned out, with actives kept by preference.
Record form. Attribute: inhibition. Fill in for each entry.
One number for each entry, in %.

COc1cccc(NC(=O)CN(C)C(=O)/C=C/c2cc(OC)ccc2OC)c1 ... -0.16
COc1ccc(S(=O)(=O)N2CCOC2CNC(=O)C(=O)NCc2ccc(F)cc2)cc1 (centres undefined) ... 0.32
O=C(OCc1ccc(-c2ccccc2)cc1)c1cccc(O)c1 ... -0.19

Now look at this entry.
# value lookup — system Candida albicans multidrug efflux pump MDR1 (expressed in S. cerevisiae AD1-8u), readout inhibition, item COc1ccc2[nH]c3c(C)c4cc[n+](C)cc4c(C)c3c2c1
0.07
